Ref: patent US20260109763A1

biological target: human PILRA G78 on cells (human, UniProt Q9UKJ1 20-303); test: cell-based or functional assay
Sequence (Q9UKJ1 20-303 R78G limits assumed): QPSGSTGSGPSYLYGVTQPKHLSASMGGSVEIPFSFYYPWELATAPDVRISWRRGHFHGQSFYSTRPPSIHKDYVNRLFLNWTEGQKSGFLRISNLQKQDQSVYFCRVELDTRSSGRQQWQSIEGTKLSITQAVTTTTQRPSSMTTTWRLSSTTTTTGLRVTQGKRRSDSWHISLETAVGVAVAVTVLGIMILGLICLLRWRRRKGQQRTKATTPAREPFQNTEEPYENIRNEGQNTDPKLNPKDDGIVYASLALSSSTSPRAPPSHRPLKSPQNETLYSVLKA
Endpoint: pSTAT3 Y705 induction, Fold Over Background

[[record]]
binder = "Anti-PILRA antibody clone 11 (antibody, V domains shown) VH: EVKLVESGGGLVRPGGSQKLSCAVSGFAFSGYDMSWVRQTPEKRLEWVATISNGGRHTYYPDSVKGRFTISRDNARNTLYLQMSSLRSEDTALYYCARQKTWDVHAMDYWGQGTSVTVSS VL: QLVLTQSSSASFSLGASAKLTCTLSSQHSTYTIEWYQQQPLKPPKYVMELKKDGSHSTGDGIPDRFSGSSSGADRYLSISNIQPEDEAIYICGVGDTIKEQFVYVFGGGTKVTVL"
result_value = "1.42 fold"

[[record]]
binder = "Anti-PILRA antibody clone 5 (antibody, human IgG1, kappa, L234A L235A, V domains shown, also called Ab; Clone 5; Ab.5) VH: QVQLVQSGAEVKKPGASVRVSCKASGYTFIGFYIHWVRQAPGQGLEWMGWINPESGDTTYAQKFQGRVTMTTDTSINTAYMDLNRLRSDDSAVYFCARGNWNFPDTFDFWGQGTMVIVSS VL: DIQMTQSPSSLSASVGDRVTITCRSSQSISIYLNWHQQIPGKAPKLLIYVASSLQSGIPSRFSGRGSGTEFTLTISSLQPEDFATYYCQQSYSAPFTFGPGTKVDIKR"
result_value = "15.8 fold"

